Measured %Inh values are reported for all entries that follow.
# Test system: DAPK2
# conditions: concentration: 1 μM, replicates: in singlicate; n = 1;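 also: KINOMEscan kinase panel screen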

Before answering, review these 10 worked examples.
Problem: For the molecule O=C(O)C(F)(F)F.O=c1[nH]ccc2nc(N[C@@H]3CCNC3)nc(Nc3ccc4c(c3)S(=O)(=O)CC4)c12 [GSK2181306] , what %Inh is on record?
Solution: 97.8%

Problem: Can you share its %Inh? I mean this molecule: CC(C)c1nc(-c2ccc(F)c(NS(=O)(=O)c3c(F)cccc3F)c2)c(-c2ccnc(Nc3ccc(N4CCOCC4)nc3)n2)s1 [GSK1804250]
Solution: 5%

Problem: # query: %Inh of entry CC(C)NCC(Cc1ccccc1)NC(=O)c1cc(Br)c(-c2ccnc3[nH]ccc23)s1.Cl.Cl (centres unmarked) [GSK1383281]
Solution: 0%

Problem: Which %Inh reading was recorded for the molecule O=C1NC(=O)C(c2ccccc2Cl)=C1Nc1cccc(Cl)c1 [SB-342409] ?
Solution: 0%

Problem: If you can, please state the reported %Inh value of CN(c1ccc2c(c1)nc(NCc1ccccc1)n2C)c1ccnc(Nc2ccc(CS(C)(=O)=O)cc2)n1.Cl [GW811603] .
Solution: 0%

Problem: # lookup: %Inh of Cc1cc(-c2c(-c3ccc(F)cc3)ncn2CCCN2CCOCC2)nc(N)n1 [SB-222517]
Solution: 21%

Problem: Sample Fc1cc(Cl)ccc1Nc1ccnc2cc(-c3ccc(CN4CCSCC4)o3)ccc12 [GW560106] — what was its %Inh?
Solution: 0%

Problem: Could you tell me which %Inh is on file for O=C(Nc1n[nH]c2nc(-c3cccc(O)c3)ccc12)C1CC1 [SB-711805] ?
Solution: 0%

Problem: // lookup %Inh for c1ccc(Oc2ccc(Nc3ccnc4cc(-c5ccc(CN6CCCCC6)o5)ccc34)cc2)nc1 [GW567143]
Solution: 0%

Problem: What value of %Inh has been reported for the following molecule? COc1ccc(C)c(Nc2ccnc(Nc3ccc(-c4cnc[nH]4)cc3)n2)c1.Cl [GW784041]
Solution: 10%

Next:
Problem: Please report the recorded %Inh for O=C(Nc1n[nH]c2nc(-c3ccccc3O)ccc12)C1CC1 [SB-711880] .
Solution: 0%

Problem: Quick one: %Inh of Cn1cc(-c2ccc3c(c2)CCN3C(=O)Cc2cc(F)cc(F)c2F)c2c(N)ncnc21 [GSK2634140] ?
Solution: 0%

* * *

# System: GRK7
# conditions: concentration: 1 μM, replicates: in singlicate; n = 1
# key: entry, value: %Inh
Answer format: numeric, % implied, no suffix.

Problem: Field request: %Inh | item: Nc1ncnc2scc(-c3ccc(NC(=O)Cc4cc(F)ccc4F)cc3)c12.O=C(O)C(F)(F)F
Solution: 29

Problem: Field request: %Inh | item: Cc1ccc(C)c(NC(=O)Nc2ccc(C)c(-c3ccc(C(=O)Nc4ccncc4)cc3)c2)c1
Solution: 0

Problem: %Inh for COc1cc(Nc2ccnc3cc(-c4ccncc4)ccc23)cc(OC)c1OC.Cl ?
Solution: 0

Problem: # input molecule: CNc1nccc(-c2ccc3c(N)n[nH]c3c2)n1 ; wanted: its %Inh
Solution: 14

Further cases:
Problem: If you can, please state the reported %Inh value of Cn1cc(-c2cnc(N)c3c(-c4ccc5c(c4)CCN5C(=O)Cc4ccccc4)csc23)cn1 .
Solution: 6

Problem: State the recorded %Inh for this entry: NCCC(NC(=O)c1cc(Br)c(-c2ccnc3[nH]ccc23)s1)c1ccccc1.O=C(O)C(F)(F)F.O=C(O)C(F)(F)F (centres unmarked)
Solution: 89

Problem: Find the recorded %Inh belonging to COc1cccc(-c2nc(-c3ccccc3)[nH]c2-c2ccncc2)c1 and report it.
Solution: 0

Problem: Data request, read-out %Inh, for CC(=O)Nc1cn2nc(Oc3cccc(NC(=O)c4cccc(C(F)(F)F)c4)c3)ccc2n1
Solution: 0

* * *

// values below are reported %Inh
# System: GRK3
# Construct: gene ADRBK2
# conditions: concentration: 1 μM, replicates: in singlicate; n = 1
Respond with the bare value in %.

Would you please look over these solved cases?
Problem: Query %Inh on GRK3 for O=C(Nc1c(F)cccc1F)c1cc(C(=O)c2ccccc2F)c[nH]1 [GSK1326180]
Solution: 35

Problem: Record COc1ccc(C2=C(Nc3cccc(O)c3)C(=O)NC2=O)cc1 [SB-390766] : what is its %Inh with GRK3?
Solution: 33

Problem: Param readout = %Inh; param system = GRK3; param query = Fc1cc(Cl)ccc1Nc1ccnc2cc(-c3ccc(CN4CCSCC4)o3)ccc12 [GW560106] ; response: value
Solution: 32

Problem: Value wanted: %Inh (GRK3) of entry Cc1ccc(O)cc1Nc1ccnc2cc(-c3ccc(CN4CCCCC4)o3)ccc12 [GW557777]
Solution: 0

Problem: Form: Entry = Cn1cc(-c2ccc3c(c2)CCN3C(=O)Cc2cc(F)cc(C(F)(F)F)c2)c2c(N)ncnc21 [GSK2635225] | System = GRK3 | %Inh = ____
Solution: 0

Problem: Any idea what %Inh came out for CSc1ccc(NC2=C(c3ccc(Cl)cc3)C(=O)NC2=O)cc1 [SB-317658] on GRK3?
Solution: 12

Further cases:
Problem: For GRK3, provide %Inh of COc1cccc(-c2nc(-c3ccccc3)[nH]c2-c2ccncc2)c1 [SB-610250] please.
Solution: 49

* * *

# Test system: CSNK2A1
# conditions: concentration: 1 μM, replicates: in singlicate; n = 1
endpoint.name: %Inh (%)
Express the result in % but write the number alone.

Problem: For the molecule shown here, Fc1cc(Cl)ccc1Nc1ccnc2cc(-c3ccc(CN4CCOCC4)o3)ccc12 [GW560109] , give the reported %Inh.
Solution: 0

Problem: Which value of %Inh has been reported for c1ccc(Oc2ccc(Nc3ccnc4cc(-c5ccc(CN6CCCCC6)o5)ccc34)cc2)nc1 [GW567143] in the records?
Solution: 15

Problem: Fill blank: measured %Inh of the molecule COc1ccc(C)c(Nc2ccnc(Nc3ccc(-c4cnc[nH]4)cc3)n2)c1.Cl [GW784041] is ____.
Solution: 0

Attention now turns to another entry.
Problem: Item under review: Cc1ccc(C)c(NC(=O)Nc2ccc(C)c(-c3ccc(C(=O)Nc4ccncc4)cc3)c2)c1 [GSK1398473] . Reported %Inh?
Solution: 15

* * *

# Tested on: AAK1
# conditions: concentration: 1 μM, replicates: in singlicate; n = 1
Hi! Just check whether %Inh is below 10%. Below gives yes, equal or above gives no.

Solved cases below.
Problem: Does this molecule meet the criterion %Inh < 10%? Cl.Cl.NC(CNC(=O)c1cc(Br)c(-c2ccnc3[nH]ccc23)s1)c1ccccc1 (centres unmarked)
Solution: no

Problem: hey, is %Inh for c1ccc(Oc2ccc(Nc3ccnc4cc(-c5ccc(CN6CCCCC6)o5)ccc34)cc2)nc1 lower than 10% or not?
Solution: yes

Problem: # TODO verify %Inh < 10% strictly for this molecule: CC(C)(C)c1ccc(C(=O)Nc2cn3cc(-n4ccnc4)ccc3n2)cc1
Solution: no

Problem: Please state whether %Inh is below 10% for Cc1ccc(Nc2ccnc(Nc3ccc(C)c(F)c3)n2)cc1O.Cl
Solution: yes

Problem: Please determine if Cn1cc(-c2ccc3c(c2)CCN3C(=O)Cc2cc(F)cc(F)c2F)c2c(N)ncnc21 is below 10% in terms of %Inh.
Solution: yes

Others:
Problem: Is %Inh strictly under 10% for the entry Cc1cccc(Nc2nc(NCCN)ncc2C(N)=O)c1 ?
Solution: no

Problem: Does the reported %Inh of O=C(Nc1c(F)cccc1F)c1cc(C(=O)c2ccccc2F)c[nH]1 stay below 10%?
Solution: yes

Problem: Does this molecule meet the criterion %Inh < 10%? CN(c1ccc2c(c1)nc(NCc1ccccc1)n2C)c1ccnc(Nc2ccc(CS(C)(=O)=O)cc2)n1.Cl
Solution: no

Problem: Say whether its %Inh is strictly beneath 10%. Entry: CS(=O)(=O)c1cccc(CNc2nc(Nc3ccc4c(c3)CCC(=O)N4)ncc2C(F)(F)F)c1
Solution: no

Problem: I wonder whether O=C(Nc1n[nH]c2nc(-c3ccccc3O)ccc12)C1CC1 has %Inh below 10%. Can you tell?
Solution: no

Problem: hey, is %Inh for COc1cccc(CC(=O)N2CCc3cc(-c4cn(C)c5ncnc(N)c45)ccc32)c1 lower than 10% or not?
Solution: no

Problem: Is %Inh of N#CC1(c2cccc(C(=O)Nc3cccc(Oc4ccc5nc(NC(=O)C6CC6)sc5n4)c3)c2)CC1 strictly below 10%?
Solution: yes

Problem: Please indicate whether the reported %Inh of COc1ccc(C2=C(Nc3cccc(O)c3)C(=O)NC2=O)cc1 is strictly below 10%.
Solution: no

Problem: A record lists Cl.Cl.NCC(NC(=O)c1cc(-c2cccnc2)c(-c2ccnc3[nH]ccc23)s1)c1ccccc1 (centres unmarked) . Is its %Inh below 10%?
Solution: no

Problem: # TODO verify %Inh < 10% strictly for this molecule: CCNc1nccc(-c2c(-c3ccc(F)cc3)ncn2C2CCN(C)CC2)n1
Solution: no

Problem: Field: below-cutoff. Rule: recorded %Inh strictly less than 10%. Subject: CSc1ccc(NC2=C(c3ccc(Cl)cc3)C(=O)NC2=O)cc1
Solution: yes

Problem: Strictly below 10% in %Inh? Cl.O=C(Nc1ccc(Oc2ccc3[nH]c(NC(=O)c4ccco4)nc3c2)cc1)Nc1cc(C(F)(F)F)ccc1F
Solution: yes

Problem: # strict comparison: is reported %Inh < 10%? input = O=C(Nc1n[nH]c2nc(-c3cccc(O)c3)ccc12)C1CC1
Solution: no

Problem: Determine whether this molecule shows %Inh lower than 10% (ties excluded): CC(C)c1nc(-c2cccc(NS(=O)(=O)c3c(F)cccc3F)c2)c(-c2ccnc(Nc3ccc(N4CCOCC4)nc3)n2)s1.Cl
Solution: yes

Problem: API: query returns whether the molecule falls strictly under 10% in %Inh. Query: CCn1c(-c2nonc2N)nc2c(-c3ccccc3)ncc(OCCCN)c21.O=C(O)C(F)(F)F.O=C(O)C(F)(F)F
Solution: no

Problem: Is %Inh strictly under 10% for the entry CN(C)CCNS(=O)(=O)c1ccc(-c2ccnc3[nH]ccc23)cc1 ?
Solution: no

Problem: Check if %Inh falls below 10% for Cc1cc(-c2ccnc(Nc3cccc(C#N)c3)n2)cc(C)c1O .
Solution: no

Problem: Criterion: %Inh strictly below 10%. Is it met by Cc1ccc(C)c(NC(=O)Nc2ccc(C)c(-c3ccc(C(=O)Nc4ccncc4)cc3)c2)c1 ?
Solution: no
